- Tested on: LG0567-F671-PDC multi-cell spheroid viability
- method summary: Anticancer human tumor LG0567-F671-PDC patient-derived lung adenocarcinoma cell line growth inhibition [IpAb]
- protocol conditions: second compound 0.316 µM; first compound 3.16 µM; active compounds read low
measured attribute: viability, T/C

{"molecule": "CCCS(=O)(=O)Nc1ccc(F)c(C(=O)c2c[nH]c3ncc(-c4ccc(Cl)cc4)cc23)c1F + CC(C)NCC(C(=O)N1CCN(c2ncnc3c2C(C)CC3O)CC1)c1ccc(Cl)cc1", "measured attribute": "viability, T/C", "endpoint value": "127%"}
{"molecule": "CCCS(=O)(=O)Nc1ccc(F)c(C(=O)c2c[nH]c3ncc(-c4ccc(Cl)cc4)cc23)c1F + CCN1CCN(Cc2ccc(Nc3ncc(F)c(-c4cc(F)c5nc(C)n(C(C)C)c5c4)n3)nc2)CC1", "measured attribute": "viability, T/C", "endpoint value": "80.1%"}
{"molecule": "Cn1ncc(Cl)c1-c1cc(C(=O)NC(CN)Cc2cccc(F)c2)sc1Cl (stereo not given) + CC(C)NCC(C(=O)N1CCN(c2ncnc3c2C(C)CC3O)CC1)c1ccc(Cl)cc1", "measured attribute": "viability, T/C", "endpoint value": "58.2%"}
{"molecule": "C=CC(=O)N1CCN(c2nc(=O)n(-c3c(C)ccnc3C(C)C)c3nc(-c4c(O)cccc4F)c(F)cc23)C(C)C1 (stereo not given) + CCN1CCN(Cc2ccc(Nc3ncc(F)c(-c4cc(F)c5nc(C)n(C(C)C)c5c4)n3)nc2)CC1", "measured attribute": "viability, T/C", "endpoint value": "16.6%"}
{"molecule": "Cn1ncc(Cl)c1-c1cc(C(=O)NC(CN)Cc2cccc(F)c2)sc1Cl (stereo not given) + CCN1CCN(Cc2ccc(Nc3ncc(F)c(-c4cc(F)c5nc(C)n(C(C)C)c5c4)n3)nc2)CC1", "measured attribute": "viability, T/C", "endpoint value": "30.9%"}

====

- Test system: LG0567-F671-PDC multi-cell spheroid viability
- method summary: Anticancer human tumor LG0567-F671-PDC cell line growth inhibition [IpAb];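 further: viability read after 7 days of drug exposure; 100% = DMSO vehicle control luminescence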
- protocol conditions: second compound 0.1 µM; first compound 1 µM; active compounds read low
Measured viability, T/C values are reported for all entries that follow.

{"compound": "CC1(C)CCC(CN2CCN(c3ccc(C(=O)NS(=O)(=O)c4ccc(NCC5CCOCC5)c([N+](=O)[O-])c4)c(Oc4cnc5[nH]ccc5c4)c3)CC2)=C(c2ccc(Cl)cc2)C1 + CCN1CCN(Cc2ccc(Nc3ncc(F)c(-c4cc(F)c5nc(C)n(C(C)C)c5c4)n3)nc2)CC1", "viability, T/C": "84.5%"}
{"compound": "CC1(C)CCC(CN2CCN(c3ccc(C(=O)NS(=O)(=O)c4ccc(NCC5CCOCC5)c([N+](=O)[O-])c4)c(Oc4cnc5[nH]ccc5c4)c3)CC2)=C(c2ccc(Cl)cc2)C1 + CC(C)NCC(C(=O)N1CCN(c2ncnc3c2C(C)CC3O)CC1)c1ccc(Cl)cc1", "viability, T/C": "88.6%"}
{"compound": "Cn1nccc1Nc1nccc(-c2ccn(C(CO)c3ccc(Cl)c(F)c3)c(=O)c2)n1 (centres undefined) + CCN1CCN(Cc2ccc(Nc3ncc(F)c(-c4cc(F)c5nc(C)n(C(C)C)c5c4)n3)nc2)CC1", "viability, T/C": "28.1%"}
{"compound": "COc1c(OCCCN2CCOCC2)ccc2c3n(c(=NC(=O)c4cnc(N)nc4)nc12)CCN3 + CCN1CCN(Cc2ccc(Nc3ncc(F)c(-c4cc(F)c5nc(C)n(C(C)C)c5c4)n3)nc2)CC1", "viability, T/C": "26.6%"}

====

- System: LG0567-F671-PDC multi-cell spheroid viability
- method summary: Anticancer human tumor LG0567-F671-PDC cell line growth inhibition [IpAb];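 further: viability read after 7 days of drug exposure; 100% = DMSO vehicle control luminescence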
- protocol conditions: second compound 0.316 µM; first compound 0.00949 µM; active compounds read low
- Experimental: Combinatorial screen of targeted agents with ipatasertib and abemaciclib in multi-cell type tumor spheroids […] Compounds. […] If the clinical Cmax for an agent had not been determined, the highest concentration tested was 10 microM. NCI60 Cell Culture. […] The optimal seeding densities for each of the cell lines at each time point assessed were determined prior to performing the concentration response studies. […]
Listed here: items and their measured viability, T/C.

{"compound": "CC(C)(C)c1cnc(CSc2cnc(NC(=O)C3CCNCC3)s2)o1 + CCN1CCN(Cc2ccc(Nc3ncc(F)c(-c4cc(F)c5nc(C)n(C(C)C)c5c4)n3)nc2)CC1", "value unit": "%", "viability, T/C": 56}
{"compound": "CC(=O)c1c(C)c2cnc(Nc3ccc(N4CCNCC4)cn3)nc2n(C2CCCC2)c1=O + CCN1CCN(Cc2ccc(Nc3ncc(F)c(-c4cc(F)c5nc(C)n(C(C)C)c5c4)n3)nc2)CC1", "value unit": "%", "viability, T/C": 67.1}
{"compound": "Cn1cnc2c(F)c(Nc3ccc(Br)cc3Cl)c(C(=O)NOCCO)cc21 + CC(C)NCC(C(=O)N1CCN(c2ncnc3c2C(C)CC3O)CC1)c1ccc(Cl)cc1", "value unit": "%", "viability, T/C": 43.4}
{"compound": "CC(=O)c1c(C)c2cnc(Nc3ccc(N4CCNCC4)cn3)nc2n(C2CCCC2)c1=O + CC(C)NCC(C(=O)N1CCN(c2ncnc3c2C(C)CC3O)CC1)c1ccc(Cl)cc1", "value unit": "%", "viability, T/C": 69.7}
{"compound": "Cn1cnc2c(F)c(Nc3ccc(Br)cc3Cl)c(C(=O)NOCCO)cc21 + CCN1CCN(Cc2ccc(Nc3ncc(F)c(-c4cc(F)c5nc(C)n(C(C)C)c5c4)n3)nc2)CC1", "value unit": "%", "viability, T/C": 48.8}
{"compound": "CC(C)(C)c1cnc(CSc2cnc(NC(=O)C3CCNCC3)s2)o1 + CC(C)NCC(C(=O)N1CCN(c2ncnc3c2C(C)CC3O)CC1)c1ccc(Cl)cc1", "value unit": "%", "viability, T/C": 73.6}

====

- System: LG0567-F671-PDC multi-cell spheroid viability
- method summary: Anticancer human tumor LG0567-F671-PDC cell line growth inhibition [IpAb];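 further: viability read after 7 days of drug exposure; 100% = DMSO vehicle control luminescence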
- protocol conditions: second compound 10 µM; first compound 1 µM; active compounds read low
Each record here notes measured viability, T/C.
measured attribute: viability, T/C (%)

{"compound": "CCCS(=O)(=O)Nc1ccc(F)c(C(=O)c2c[nH]c3ncc(-c4ccc(Cl)cc4)cc23)c1F + CC(C)NCC(C(=O)N1CCN(c2ncnc3c2C(C)CC3O)CC1)c1ccc(Cl)cc1", "endpoint value": 84.9}
{"compound": "Cc1nc(NC(=O)N2CCCC2C(N)=O)sc1-c1ccnc(C(C)(C)C(F)(F)F)c1 (stereo not given) + CC(C)NCC(C(=O)N1CCN(c2ncnc3c2C(C)CC3O)CC1)c1ccc(Cl)cc1", "endpoint value": 46.2}
{"compound": "C=CC(=O)N1CCN(c2nc(=O)n(-c3c(C)ccnc3C(C)C)c3nc(-c4c(O)cccc4F)c(F)cc23)C(C)C1 (stereo not given) + CC(C)NCC(C(=O)N1CCN(c2ncnc3c2C(C)CC3O)CC1)c1ccc(Cl)cc1", "endpoint value": 10}
{"compound": "CC1(C)CCC(CN2CCN(c3ccc(C(=O)NS(=O)(=O)c4ccc(NCC5CCOCC5)c([N+](=O)[O-])c4)c(Oc4cnc5[nH]ccc5c4)c3)CC2)=C(c2ccc(Cl)cc2)C1 + CC(C)NCC(C(=O)N1CCN(c2ncnc3c2C(C)CC3O)CC1)c1ccc(Cl)cc1", "endpoint value": 79.9}
{"compound": "C=CCn1c(=O)c2cnc(Nc3ccc(N4CCN(C)CC4)cc3)nc2n1-c1cccc(C(C)(C)O)n1 + CC(C)NCC(C(=O)N1CCN(c2ncnc3c2C(C)CC3O)CC1)c1ccc(Cl)cc1", "endpoint value": 49.1}

====

- Tested on: LG0567-F671-PDC multi-cell spheroid viability
- method summary: Anticancer human tumor LG0567-F671-PDC cell line growth inhibition [IpAb];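 further: viability read after 7 days of drug exposure; 100% = DMSO vehicle control luminescence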
- protocol conditions: second compound 0.316 µM; first compound 0.0949 µM; active compounds read low
For each record, check the reported viability, T/C: if it is below 50% write 1.0, else write 0.0.

{"molecule": "CC(C)(C)c1cnc(CSc2cnc(NC(=O)C3CCNCC3)s2)o1 + CC(C)NCC(C(=O)N1CCN(c2ncnc3c2C(C)CC3O)CC1)c1ccc(Cl)cc1", "assigned label": 0.0}
{"molecule": "Cn1cnc2c(F)c(Nc3ccc(Br)cc3Cl)c(C(=O)NOCCO)cc21 + CCN1CCN(Cc2ccc(Nc3ncc(F)c(-c4cc(F)c5nc(C)n(C(C)C)c5c4)n3)nc2)CC1", "assigned label": 1.0}
{"molecule": "CC(=O)c1c(C)c2cnc(Nc3ccc(N4CCNCC4)cn3)nc2n(C2CCCC2)c1=O + CC(C)NCC(C(=O)N1CCN(c2ncnc3c2C(C)CC3O)CC1)c1ccc(Cl)cc1", "assigned label": 0.0}
{"molecule": "CC(C)(C)c1cnc(CSc2cnc(NC(=O)C3CCNCC3)s2)o1 + CCN1CCN(Cc2ccc(Nc3ncc(F)c(-c4cc(F)c5nc(C)n(C(C)C)c5c4)n3)nc2)CC1", "assigned label": 1.0}
{"molecule": "CC(=O)c1c(C)c2cnc(Nc3ccc(N4CCNCC4)cn3)nc2n(C2CCCC2)c1=O + CCN1CCN(Cc2ccc(Nc3ncc(F)c(-c4cc(F)c5nc(C)n(C(C)C)c5c4)n3)nc2)CC1", "assigned label": 0.0}
{"molecule": "Cn1cnc2c(F)c(Nc3ccc(Br)cc3Cl)c(C(=O)NOCCO)cc21 + CC(C)NCC(C(=O)N1CCN(c2ncnc3c2C(C)CC3O)CC1)c1ccc(Cl)cc1", "assigned label": 1.0}
